molecular target: CETP (Homo sapiens); experiment: Assay of CETP Inhibition using Purified Components (Reconstituted Buffer Assay); type: biochemical; set-up: made in house; host or cells: CHO cells (serum-free conditioned medium); conditions: Inhibition of CETP activity in reconstituted buffer assay; transfer of [3H]CE from HDL to LDL; read-out: IC50
We label by threshold. Values of IC50 strictly beneath 40 µM are met. Values of 40 µM and up are not met.

stdin: # check: IC50 < 40 µM for CCOC(=O)c1cccc(N(Cc2cccc(OC(F)(F)F)c2)CC(O)C(F)(F)F)c1 (centres unmarked)
stdout: met

stdin: # check: IC50 < 40 µM for OC(CN(Cc1ccccc1)c1cccc(Cl)c1)C(F)(F)F (centres unmarked)
stdout: not met

stdin: # check: IC50 < 40 µM for CC(c1cccc(F)c1)N(CC(O)C(F)(F)F)c1cccc(Oc2ccccc2)c1 (centres unmarked)
stdout: not met

* * *

// values below are reported IC50
Biological target: CETP (Homo sapiens, UniProt P11597)
Sequence (P11597 18-493): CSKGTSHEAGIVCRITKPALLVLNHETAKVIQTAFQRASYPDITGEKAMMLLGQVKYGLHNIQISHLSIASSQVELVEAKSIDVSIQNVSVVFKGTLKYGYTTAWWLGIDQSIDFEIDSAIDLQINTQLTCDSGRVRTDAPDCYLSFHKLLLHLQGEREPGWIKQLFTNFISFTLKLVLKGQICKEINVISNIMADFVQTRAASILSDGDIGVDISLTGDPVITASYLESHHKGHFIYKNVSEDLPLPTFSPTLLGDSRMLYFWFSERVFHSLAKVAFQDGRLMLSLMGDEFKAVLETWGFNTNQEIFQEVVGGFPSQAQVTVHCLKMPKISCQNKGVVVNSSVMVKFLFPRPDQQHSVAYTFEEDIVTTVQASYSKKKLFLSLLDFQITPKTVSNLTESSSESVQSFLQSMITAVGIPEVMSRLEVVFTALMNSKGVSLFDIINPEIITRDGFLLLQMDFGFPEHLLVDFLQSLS
Assay: Assay of CETP Inhibition in Human Plasma
Format: biochemical
Parameters: Blood was obtained from healthy volunteers, recruited from the personnel of Monsanto Company; from tissue; host or cells: human EDTA plasma pool from healthy volunteers
Conditions: Inhibition of CETP activity in human plasma assay; transfer of [3H]CE from HDL to VLDL and LDL; read-out: IC50

Some compounds with known IC50 results, for comparison:
COMPOUND: OC(CN(Cc1cccc(OC(F)(F)C(F)F)c1)c1cccc(N2CCCCC2)c1)C(F)(F)F (centres unmarked)
OBSERVED PROPERTY: IC50
MEASUREMENT: > 100 µM

COMPOUND: OC(COc1cccc(CN(CC(O)C(F)(F)F)c2cccc(Oc3ccccc3)c2)c1)C(F)(F)F (centres unmarked)
OBSERVED PROPERTY: IC50
MEASUREMENT: 48 µM

COMPOUND: OC(CN(Cc1cccc(OC(F)(F)C(F)F)c1)c1cc(F)ccc1F)C(F)(F)F (centres unmarked)
OBSERVED PROPERTY: IC50
MEASUREMENT: 65 µM

COMPOUND: OC(CN(Cc1cccc(OC(F)(F)F)c1)c1ccc2c(c1)OC(F)(F)C(F)(F)O2)C(F)(F)F (centres unmarked)
OBSERVED PROPERTY: IC50
MEASUREMENT: 60 µM

COMPOUND: OC(CN(Cc1cccc(OC(F)(F)C(F)F)c1)c1cccc(Nc2ccccc2)c1)C(F)(F)F (centres unmarked)
OBSERVED PROPERTY: IC50
MEASUREMENT: 30 µM

COMPOUND: OC(CN(Cc1cccc(OC(F)(F)C(F)F)c1)c1cccc(Oc2cc(F)ccc2Br)c1)C(F)(F)F (centres unmarked)
OBSERVED PROPERTY: IC50
MEASUREMENT: 3.4 µM

COMPOUND: OC(CN(Cc1cccc(OC(F)(F)C(F)F)c1)c1cccc(OC(F)(F)F)c1)C(F)(F)F (centres unmarked)
OBSERVED PROPERTY: IC50
MEASUREMENT: 36 µM

Please look at the following compound next.
stdin: State the recorded IC50 for this entry: OC(CN(Cc1cccc(OC(F)(F)C(F)F)c1)c1cccc(Nc2cc(F)cc(F)c2)c1)C(F)(F)F (centres unmarked)
stdout: 81 µM

* * *

// values below are reported IC50
Molecular target: UniProtKB P11597
Sequence (P11597 18-493): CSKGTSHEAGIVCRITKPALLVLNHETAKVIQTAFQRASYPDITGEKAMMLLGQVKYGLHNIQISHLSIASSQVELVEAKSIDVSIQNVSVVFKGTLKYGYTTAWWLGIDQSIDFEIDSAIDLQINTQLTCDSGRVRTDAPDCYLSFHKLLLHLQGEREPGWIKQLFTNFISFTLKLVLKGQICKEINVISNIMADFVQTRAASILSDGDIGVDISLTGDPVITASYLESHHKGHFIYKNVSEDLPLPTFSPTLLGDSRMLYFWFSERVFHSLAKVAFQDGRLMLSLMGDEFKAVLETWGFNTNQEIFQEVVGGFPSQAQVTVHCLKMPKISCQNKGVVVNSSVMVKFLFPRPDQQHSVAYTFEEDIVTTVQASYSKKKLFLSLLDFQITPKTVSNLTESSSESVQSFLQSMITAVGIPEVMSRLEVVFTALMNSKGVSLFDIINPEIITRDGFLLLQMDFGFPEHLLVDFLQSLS
Assay: Assay of CETP Inhibition using Purified Components (Reconstituted Buffer Assay)
Assay type: biochemical
Parameters: made in house; host or cells: CHO cells (serum-free conditioned medium)
Conditions: Inhibition of CETP activity in reconstituted buffer assay; transfer of [3H]CE from HDL to LDL; read-out: IC50
Give the number; µM is assumed, so skip it.

Some molecules with known IC50 results, for comparison:
MOLECULE: OC(CN(Cc1cccc(OC(F)(F)C(F)F)c1)c1cccc(I)c1)C(F)(F)F (stereo not shown)
MEASUREMENT TARGET: UniProtKB P11597
U: µM
MEASUREMENT: 2.7
--
MOLECULE: CC(C)(O)c1cccc(CN(CC(O)C(F)(F)F)c2cccc(Oc3ccccc3)c2)c1 (stereo not shown)
MEASUREMENT TARGET: UniProtKB P11597
U: µM
MEASUREMENT: 7.9
--
MOLECULE: OC(CN(Cc1cccc(OC(F)(F)C(F)F)c1)c1cccc(OCc2cccnc2)c1)C(F)(F)F (stereo not shown)
MEASUREMENT TARGET: UniProtKB P11597
U: µM
MEASUREMENT: 6.8

Please look at the following molecule next.
stdin: Query IC50 on UniProtKB P11597 for OC(CN(Cc1ccc(OC(F)F)cc1)c1cccc(OC(F)(F)F)c1)C(F)(F)F (stereo not shown)
stdout: 9

* * *

molecular target: CETP (Homo sapiens, UniProt P11597); test: Assay of CETP Inhibition using Purified Components (Reconstituted Buffer Assay); type: biochemical; set-up: made in house; host or cells: CHO cells (serum-free conditioned medium); settings: Inhibition of CETP activity in reconstituted buffer assay; transfer of [3H]CE from HDL to LDL; read-out: IC50
// values below are reported IC50
Give the number; µM is assumed, so skip it.

COMPOUND: CC(CCc1cccc(OC(F)(F)F)c1)N(CC(O)C(F)(F)F)c1cccc(Oc2ccccc2)c1 (centres unmarked)
U: µM
IC50: 30
--
COMPOUND: OC(CN(Cc1cccc(OC(F)(F)F)c1)c1ccc2c(c1)Cc1cc(Br)ccc1-2)C(F)(F)F (centres unmarked)
U: µM
IC50: 3.5
--
COMPOUND: O=C(c1cccc(N(Cc2cccc(OC(F)(F)C(F)F)c2)CC(O)C(F)(F)F)c1)N1CCCC1 (centres unmarked)
U: µM
IC50: 11
--
COMPOUND: COc1ccc(CN(CC(O)C(F)(F)F)c2cccc(OC(F)(F)F)c2)cc1 (centres unmarked) [Example 347]
U: µM
IC50: 15

Please look at the following compound next.
stdin: State the recorded IC50 for this entry: OC(CN(Cc1cccc(OC(F)(F)C(F)F)c1)c1cccc(Oc2ccc(Br)cc2)c1)C(F)(F)F (centres unmarked)
stdout: 0.59

* * *

Molecular target: CETP (Homo sapiens, UniProt P11597)
Sequence (P11597 18-493): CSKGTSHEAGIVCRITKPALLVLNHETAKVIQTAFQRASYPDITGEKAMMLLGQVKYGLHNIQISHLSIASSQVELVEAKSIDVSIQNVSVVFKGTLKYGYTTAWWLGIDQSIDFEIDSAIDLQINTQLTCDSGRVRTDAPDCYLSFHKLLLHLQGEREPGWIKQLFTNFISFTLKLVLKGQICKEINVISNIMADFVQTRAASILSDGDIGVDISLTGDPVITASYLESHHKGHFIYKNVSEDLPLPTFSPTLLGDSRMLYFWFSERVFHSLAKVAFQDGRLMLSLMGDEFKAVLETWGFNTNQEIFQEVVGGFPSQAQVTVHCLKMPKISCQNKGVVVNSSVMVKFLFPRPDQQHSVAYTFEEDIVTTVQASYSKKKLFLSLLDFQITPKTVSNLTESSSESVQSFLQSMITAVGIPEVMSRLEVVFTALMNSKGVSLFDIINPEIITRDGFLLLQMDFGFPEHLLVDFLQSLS
Test: Assay of CETP Inhibition using Purified Components (Reconstituted Buffer Assay)
Assay type: biochemical
Design: made in house; host or cells: CHO cells (serum-free conditioned medium)
Conditions: Inhibition of CETP activity in reconstituted buffer assay; transfer of [3H]CE from HDL to LDL; read-out: IC50
OBSERVED PROPERTY: pIC50
Please report pIC50 as the negative decimal logarithm of the molar concentration, giving only the number.

MOLECULE: OC(CN(Cc1cccc(Oc2ncccn2)c1)c1cccc(Oc2ccccc2)c1)C(F)(F)F (stereo not drawn) [Example 605]
pIC50: 4.92

MOLECULE: N#Cc1ncccc1Oc1cccc(N(Cc2cccc(OC(F)(F)C(F)F)c2)CC(O)C(F)(F)F)c1 (stereo not drawn) [Example 441]
pIC50: 5.92

MOLECULE: OC(CN(Cc1cccc(OC(F)(F)C(F)F)c1)c1cccc(OCc2cccc(Br)c2)c1)C(F)(F)F (stereo not drawn) [Example 401]
pIC50: 6.74

MOLECULE: O=C(O)c1cncc(Oc2cccc(N(Cc3cccc(OC(F)(F)C(F)F)c3)CC(O)C(F)(F)F)c2)c1 (stereo not drawn) [Example 442]
pIC50: 5.96

MOLECULE: OC(CN(Cc1cccc(OC(F)(F)C(F)F)c1)c1cccc(Oc2ccc3[nH]ccc3c2)c1)C(F)(F)F (stereo not drawn) [Example 288]
pIC50: 4.92

MOLECULE: OC(CN(Cc1cccc(Oc2cc(Cl)cc(Cl)c2)c1)c1cccc(Oc2ccccc2)c1)C(F)(F)F (stereo not drawn) [Example 114]
pIC50: 4.40

stdin: Query pIC50 on CETP (Homo sapiens, UniProt P11597) for Oc1cccc(N(Cc2cccc(OC(F)(F)C(F)F)c2)CC(O)C(F)(F)F)c1 (stereo not drawn) [Example 371]
stdout: 5.41

stdin: Query pIC50 on CETP (Homo sapiens, UniProt P11597) for COC(=O)c1ccc(COc2cccc(N(Cc3cccc(OC(F)(F)C(F)F)c3)CC(O)C(F)(F)F)c2)cc1 (stereo not drawn) [Example 388]
stdout: 5.52

stdin: Query pIC50 on CETP (Homo sapiens, UniProt P11597) for OC(CN(Cc1ccc(OC(F)(F)F)cc1)c1cccc(Br)c1)C(F)(F)F (stereo not drawn) [Example 62]
stdout: 4.74

stdin: Query pIC50 on CETP (Homo sapiens, UniProt P11597) for O=[N+]([O-])c1cccc(CN(Cc2cccc(OC(F)(F)F)c2)CC(O)C(F)(F)F)c1 (stereo not drawn) [compound 197]
stdout: 4.74

stdin: Query pIC50 on CETP (Homo sapiens, UniProt P11597) for OC(CN(Cc1cccc(Oc2ccc(Cl)cc2)c1)c1cccc(Oc2ccccc2)c1)C(F)(F)F (stereo not drawn) [Example 92]
stdout: 4.92

stdin: Query pIC50 on CETP (Homo sapiens, UniProt P11597) for CCCCN(c1ccc(C(=O)OCC)cc1)c1cccc(N(Cc2cccc(OC(F)(F)C(F)F)c2)CC(O)C(F)(F)F)c1 (stereo not drawn) [Example 313]
stdout: 4.70

stdin: Query pIC50 on CETP (Homo sapiens, UniProt P11597) for OC(CN(Cc1cccc(C(F)(F)F)c1)c1ccc(F)c(F)c1)C(F)(F)F (stereo not drawn) [Example 19]
stdout: 4.82
